- test.description: PSAC antagonists in infected red cells, primary screen, cell-based, P. falciparum Indochina, OD700, 18 h (AID 1157)
- assay.setup: P. falciparum Indochina infected erythrocytes, osmotic lysis OD700, 18 h; higher = more signal, called active from +8 up or from −8 down
Below, each entry is listed with its recorded z-score.
Answer using only a numeral; do not append any unit.

| molecule | z-score |
| --- | --- |
| O=C1[C@H]2[C@H]3[C@H](O)[C@H](O)CC(=NO[C@@H]4O[C@H](CO)[C@@H](O)[C@H](O)[C@H]4O)[C@@H]3CC[C@H]2C(=O)N1C1CCCCC1 | 0.228 |
| CCN1C(=O)[C@H]2[C@H]3[C@H](O)[C@H](O)CC(=NOC[C@@H](O)[C@H]4O[C@@H]5OC(C)(C)O[C@@H]5[C@H]4O)[C@@H]3CC[C@H]2C1=O | 0.318 |
| CO[C@H]1COC(=O)[C@H](CCSC)NC(=O)CC=C[C@@H](C)[C@H](OC)COC(=O)[C@@H](OCc2ccccc2)C=C[C@@H]1C | 0.367 |
| COC(=O)CC=C[C@@H](C)[C@@H](C=NOC[C@@H](C)[C@H](OCc1ccccc1)C(C)C)NS(=O)(=O)c1ccc(C)cc1 | 0.808 |

Turning now to a further molecule:
z-score in this record for O=C(NN=C1C[C@@H](O)[C@@H](O)[C@@H]2[C@@H]3C(=O)N(c4ccc(F)cc4F)C(=O)[C@@H]3CC[C@H]12)OCc1ccccc1 : 0.6

---

- test.description: CREB reporter modulators without forskolin, primary screen, cell-based, PC12, CRE-LacZ reporter, unstimulated (AID 1145)
- assay.setup: no forskolin, luminescence, 4.5 h, higher = more signal, called active from +8 up or from −8 down
readout.type: z-score
Answer using only a numeral; do not append any unit.

Before answering, review these 10 worked examples.
| molecule | z-score |
| --- | --- |
| CO[C@@H]1COC(=O)[C@H](CCSC)NC(=O)CC=C[C@@H](C)COC(=O)[C@@H]2CCCN2C(=O)CC=C[C@H]1C | 0.0652 |
| CC=CC1=C(CO)[C@H](O)[C@H]2O[C@H]2[C@@H]1O | -0.525 |
| C=CC[C@@H]1C=C[C@H](ON=C(C)CCN2CCCc3nc(C)c(C)cc32)[C@@H](CO)O1 | -0.0824 |
| CO[C@H]1COC(=O)[C@H](C)COC(=O)[C@H](C)NC(=O)CC=C[C@H]1C | 0.611 |
| CC(C)(C)N1C(=O)[C@H]2[C@H]3[C@H](O)[C@H](O)CC(=NOC[C@@H](O)COCc4ccco4)[C@@H]3CC[C@H]2C1=O | 1.06 |
| CSCC[C@@H]1NC(=O)CC=C[C@@H](C)COC(=O)[C@H](C)COC1=O | 0.163 |
| CC(C)CON=C1C[C@@H](O)[C@@H](O)[C@@H]2[C@@H]3C(=O)N(C(C)(C)C)C(=O)[C@@H]3CC[C@@H]12 | 1.7 |
| CC(C)=NO[C@H](C)c1cn([C@@H]2COC[C@H]2O)nn1 | 0.099 |
| CCOC(=O)[C@H](CC(C)C)NC(=O)CCC1CC(OC(=O)NCc2ccc3c(c2)OCO3)CC2(CCCC(COC(=O)NCCOc3ccccc3)O2)O1 (stereo partly specified) | 0.293 |
| COC(=O)CC=C[C@@H](C)[C@@H](C=NOC[C@@H](O)COCc1ccco1)OC | -1.05 |

Turning now to a further molecule:
z-score in this record for COC(=O)CC=C[C@@H](C)[C@@H](C=NOC(C)CN1CCCCc2nc(C)c(C)cc21)OC (stereo partly specified) : 1.41
